target: Bevacizumab (Homo sapiens, UniProt P01857); construct: 0.5 mg/ml IgG in PBS pH 7.3; ligand immobilized on SEPHAR; Bevacizumab Yield; other: mass eluted (glycine pH 2.5) / mass injected; kd (dissociation constant, Langmuir isotherm); other: Bevacizumab 0.05-5 mg/ml in PBS pH 7.3, 25° C., at least 3 h; qm (maximum capacity); other: mg Bevacizumab per ml of resin; Langmuir isotherm; t0; fused on or other part: Humanized anti-VEGF-A VH domain joined N-terminally to the IGHG1 constant region (engineered, no UniProt entry); experiment: Uptake kinetics by batch adsorption (time-scale of binding); conditions: time after which 80% of equilibrium saturation occurred; 0.75 mg/ml Bevacizumab in PBS, 25° C.
Value Type: t0.8 (time-scale of binding) (min)
One number for each entry, in min.

| Compound | Unit Of Measure | t0.8 (time-scale of binding) |
| --- | --- | --- |
| NCCCn1cnc2cc(C(=O)Nc3nncs3)ccc21 [Ligand L13] | min | 7.0 |
| Cc1nc2cc(C(=O)Nc3nnc(-c4ccco4)s3)ccc2n1CCOCCOCCNC(=O)CC[C@H](N)C(=O)NCCOCCOCCn1c(C)nc2cc(C(=O)Nc3nnc(-c4ccco4)s3)ccc21 [Ligand L54] | min | 8.4 |
| NCCCn1cnc2cc(C(=O)Nc3nnc(-c4ccco4)s3)ccc21 [Ligand L05] | min | 9.8 |
| CCc1nc2cc(C(=O)Nc3nc(-c4ccccn4)cs3)ccc2n1CCCN [Ligand L43] | min | 8.2 |
| NCCCn1cnc2cc(C(=O)Nc3nc(-c4cccnc4)cs3)ccc21 [Ligand L46] | min | 6.0 |
| Cc1nc2cc(C(=O)Nc3nc(-c4ccccn4)cs3)ccc2n1CCCN [Ligand L42] | min | 7.6 |
| N[C@@H](CCC(=O)NCCOCCOCCn1cnc2cc(C(=O)Nc3nnc(-c4ccco4)s3)ccc21)C(=O)NCCOCCOCCn1cnc2cc(C(=O)Nc3nnc(-c4ccco4)s3)ccc21 [Ligand L53] | min | 11.8 |

Lab note: next compound to report on.
Value of measured t0.8 (time-scale of binding) for the entry NCCCNc1ccc(C(=O)Nc2nnc(-c3ccco3)s2)cn1 [Ligand L19] : 8.9

====

tested on: Palivizumab; test: Microtiter plate chromatography of resins: binding and elution of Palivizumab; settings: fraction of injected protein bound; 0.5 mg/ml IgG in PBS pH 7.3
Consider the following compounds; for each one, report its Palivizumab Bound.
The reply must contain the numeric value and, after it, the unit.

| Smiles Representation | Palivizumab Bound |
| --- | --- |
| NCCOCCOCCn1cnc2cc(C(=O)Nc3nc(-c4ccccn4)cs3)ccc21 | 98% |
| NCCCNc1ccc(C(=O)Nc2nnc(-c3ccco3)s2)cc1[N+](=O)[O-] | 100% |
| NCCCn1cnc2cc(NC(=O)c3cn4ccsc4n3)ccc21 | 93% |
| Cn1nc(NC(=O)c2ccc3c(c2)ncn3CCCN)c2ccccc21 | 91% |
| CCc1nc2cc(C(=O)Nc3nc(-c4ccccn4)cs3)ccc2n1CCCN | 98% |
| NCCCn1cnc2cc(C(=O)Nc3nc4c(s3)CCC4)ccc21 | 91% |
| Cn1nc(NC(=O)c2ccc3c(c2)nnn3CCCN)c2ccccc21 | 74% |
| Cc1nsc(NC(=O)c2ccc3c(c2)ncn3CCCN)n1 | 93% |

Parameters: items (list). Returns: Palivizumab Bound for each item.
1. NCCCNc1ccc(C(=O)Nc2nc(-c3ccccn3)cs2)cn1
2. Cc1nc2cc(C(=O)Nc3nc(-c4ccncc4)cs3)ccc2n1CCCN
3. Cc1nc2cc(C(=O)Nc3nc(-c4ccccn4)cs3)ccc2n1CCCN
4. Cn1nc(C(=O)Nc2ccc3c(c2)C(=O)N(CCCN)CCO3)c2ccccc21
5. NCCCNc1ccc(C(=O)Nc2nnc(-c3ccco3)s2)cn1
6. Cn1nc(C(=O)Nc2ccc3c(c2)ncn3CCCN)c2ccccc21
7. NCCCn1cnc2cc(C(=O)Nc3nnc(-c4ccco4)s3)ccc21
8. NCCCn1cnc2cc(C(=O)Nc3nnc(-c4ccccc4)s3)ccc21

OUT:
1. 89%
2. 94%
3. 97%
4. 78%
5. 99%
6. 99%
7. 100%
8. 100%

Parameters: items (list). Returns: Palivizumab Bound for each item.
1. Cn1c(CCCCCN)nc2cc(C(=O)Nc3nnc(-c4ccco4)s3)ccc21
2. NCCOCCOCCn1cnc2cc(C(=O)Nc3nnc(-c4ccco4)s3)ccc21
3. Cc1nc2cc(C(=O)Nc3nnc(-c4ccco4)s3)ccc2n1CCCN
4. NCCOCCOc1ccc(C(=O)Nc2nnc(-c3ccco3)s2)cc1
5. COc1ccc(NC(=O)c2nn(CCCN)c3ccccc23)cc1C(N)=O
6. NCCCn1c(=O)c(=O)[nH]c2cc(C(=O)Nc3nnc(-c4ccco4)s3)ccc21
7. NCCCOc1ccc(C(=O)Nc2nc(-c3ccccn3)cs2)cc1
8. NCCCn1cnc2cc(C(=O)Nc3nc(-c4cccnc4)cs3)ccc21

OUT:
1: 100%; 2: 100%; 3: 100%; 4: 100%; 5: 85%; 6: 58%; 7: 95%; 8: 98%

====

target: Bevacizumab (Homo sapiens, UniProt P01857); construct: 0.5 mg/ml IgG in PBS pH 7.3; ligand immobilized on SEPHAR; Bevacizumab Yield; other: mass eluted (glycine pH 2.5) / mass injected; kd (dissociation constant, Langmuir isotherm); other: Bevacizumab 0.05-5 mg/ml in PBS pH 7.3, 25° C., at least 3 h; qm (maximum capacity); other: mg Bevacizumab per ml of resin; Langmuir isotherm; t0; fused on or other part: Humanized anti-VEGF-A VH domain joined N-terminally to the IGHG1 constant region (engineered, no UniProt entry); assay: Langmuir isotherms by batch adsorption; assay type: binding; details: mg Bevacizumab per ml of resin; Langmuir isotherm
# note: boundary value 40 mg/mL maps to not satisfied; qm (maximum capacity) below it maps to satisfied

Some solved cases for reference:
| Smiles Representation | Label Class |
| --- | --- |
| NCCCn1cnc2cc(C(=O)Nc3nnc(-c4ccco4)s3)ccc21 | not satisfied |
| NCCCn1cnc2cc(C(=O)Nc3nc(-c4ccccn4)cs3)ccc21 | not satisfied |
| Cc1nc2cc(C(=O)Nc3nc(-c4ccccn4)cs3)ccc2n1CCCN | not satisfied |
| Cn1c(CCCCCN)nc2cc(C(=O)Nc3nnc(-c4ccco4)s3)ccc21 | not satisfied |
| N[C@@H](CCC(=O)NCCOCCOCCn1cnc2cc(C(=O)Nc3nnc(-c4ccco4)s3)ccc21)C(=O)NCCOCCOCCn1cnc2cc(C(=O)Nc3nnc(-c4ccco4)s3)ccc21 | satisfied |

Kindly consider the entry below.
IN: Take the molecule NCCOCCOCCn1cnc2cc(C(=O)Nc3nnc(-c4ccco4)s3)ccc21 and say whether its qm (maximum capacity) is less than 40 mg/mL.
OUT: satisfied

====

system: Palivizumab; test: Microtiter plate chromatography of resins: binding and elution of Palivizumab; details: fraction of injected protein bound; 0.5 mg/ml IgG in PBS pH 7.3
Consider the following compounds; for each one, report its Palivizumab Bound.
Answers are plain numbers, in %.

Would you please look over these solved cases?
| Smiles Representation | Palivizumab Bound (%) |
| --- | --- |
| CCc1nc2cc(C(=O)Nc3nnc(-c4ccco4)s3)ccc2n1CCCN | 100 |
| CCSc1nnc(NC(=O)c2ccc3c(c2)ncn3CCCN)s1 | 100 |
| NCCCn1cnc2cc(C(=O)Nc3nnc(-c4ccncc4)s3)ccc21 | 85 |
| NCCCn1cnc2cc(C(=O)Nc3nc(-c4ccncc4)cs3)ccc21 | 98 |
| Cc1cnc(NC(=O)c2ccc3c(c2)ncn3CCCN)s1 | 88 |

Parameters: items (list). Returns: Palivizumab Bound for each item.
1. Cc1nc2cc(C(=O)Nc3nnc(-c4ccco4)s3)ccc2n1CCOCCOCCN
2. NCCCn1cnc2cc(C(=O)Nc3nnc(C4CC4)s3)ccc21
3. CCc1nnc(NC(=O)c2ccc3c(c2)ncn3CCCN)s1

OUT:
[100, 100, 90]

====

target: Bevacizumab (Homo sapiens); construct: 0.5 mg/ml IgG in PBS pH 7.3; ligand immobilized on SEPHAR; Bevacizumab Yield; other: mass eluted (glycine pH 2.5) / mass injected; kd (dissociation constant, Langmuir isotherm); other: Bevacizumab 0.05-5 mg/ml in PBS pH 7.3, 25° C., at least 3 h; qm (maximum capacity); other: mg Bevacizumab per ml of resin; Langmuir isotherm; t0; fused on or other part: Humanized anti-VEGF-A VH domain joined N-terminally to the IGHG1 constant region (engineered, no UniProt entry); experiment: Langmuir isotherms by batch adsorption; format: binding; settings: Bevacizumab 0.05-5 mg/ml in PBS pH 7.3, 25° C., at least 3 h; read-out: kd (dissociation constant, Langmuir isotherm) (converted)
Consider the following compounds; for each one, report its Kd.
Answers are plain numbers, in µM.

Would you please look over these solved cases?
| Smiles Representation | Kd (µM) |
| --- | --- |
| NCCOCCOCCn1cnc2cc(C(=O)Nc3nnc(-c4ccco4)s3)ccc21 | 85.9 |
| NCCCn1c(=O)[nH]c2cc(C(=O)Nc3nnc(-c4ccco4)s3)ccc21 | 583 |
| CCc1nnc(NC(=O)c2ccc3c(c2)ncn3CCCN)s1 | 200 |
| NCCCn1cnc2cc(C(=O)Nc3nc(-c4ccncc4)cs3)ccc21 | 169 |
| Cn1nc(C(=O)Nc2ccc3c(c2)ncn3CCCN)c2ccccc21 | 210 |

Parameters: items (list). Returns: Kd for each item.
1. Cc1nc2cc(C(=O)Nc3nnc(-c4ccco4)s3)ccc2n1CCOCCOCCNC(=O)CC[C@H](N)C(=O)NCCOCCOCCn1c(C)nc2cc(C(=O)Nc3nnc(-c4ccco4)s3)ccc21
2. NCCCn1cnc2cc(C(=O)Nc3nc(-c4ccccn4)cs3)ccc21
3. NCCCn1cnc2cc(NC(=O)c3cn4ccsc4n3)ccc21

OUT:
1: 46.9; 2: 122; 3: 358

Provenance of the data: patent US9745339B2
